# Tested Target: Fuc(a1-2)Gal(b1-3)GlcNAc(b1-3)[Neu5Ac(a2-6)Gal(b1-4)GlcNAc(b1-6)]Gal(b1-4)Glc
# Assay Name: glycan array binding signal (z-score within array); higher = stronger binding
# Condition Description: glycan notation: IUPAC condensed, linker removed
Shown is part of a subset that was picked to be rich in the strongest signals.
Measured Parameter: glycan array binding signal (z-score)

Would you please look over these solved cases?
Binder	Experimental Result
Langerin K299A/K313A (Homo sapiens), Q9UJ71 (protein) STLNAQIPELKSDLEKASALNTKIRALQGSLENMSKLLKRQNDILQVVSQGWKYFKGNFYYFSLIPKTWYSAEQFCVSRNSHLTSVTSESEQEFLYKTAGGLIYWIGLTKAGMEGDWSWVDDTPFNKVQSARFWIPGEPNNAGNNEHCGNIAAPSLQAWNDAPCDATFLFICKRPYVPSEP	0.388
HPL (Tachypleus tridentatus) (protein) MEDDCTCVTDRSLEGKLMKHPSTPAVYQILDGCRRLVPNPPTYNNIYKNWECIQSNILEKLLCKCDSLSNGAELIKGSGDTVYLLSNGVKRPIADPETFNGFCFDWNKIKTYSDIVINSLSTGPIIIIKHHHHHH	-0.343
LFA (Limax flavus) (protein) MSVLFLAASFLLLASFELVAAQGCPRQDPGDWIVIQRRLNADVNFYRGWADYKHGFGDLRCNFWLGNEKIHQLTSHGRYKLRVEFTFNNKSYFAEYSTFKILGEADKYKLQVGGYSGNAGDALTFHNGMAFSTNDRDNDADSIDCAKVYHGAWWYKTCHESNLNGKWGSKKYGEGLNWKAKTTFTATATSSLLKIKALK	-0.319
EUL D1A (Oryza sativa) (protein) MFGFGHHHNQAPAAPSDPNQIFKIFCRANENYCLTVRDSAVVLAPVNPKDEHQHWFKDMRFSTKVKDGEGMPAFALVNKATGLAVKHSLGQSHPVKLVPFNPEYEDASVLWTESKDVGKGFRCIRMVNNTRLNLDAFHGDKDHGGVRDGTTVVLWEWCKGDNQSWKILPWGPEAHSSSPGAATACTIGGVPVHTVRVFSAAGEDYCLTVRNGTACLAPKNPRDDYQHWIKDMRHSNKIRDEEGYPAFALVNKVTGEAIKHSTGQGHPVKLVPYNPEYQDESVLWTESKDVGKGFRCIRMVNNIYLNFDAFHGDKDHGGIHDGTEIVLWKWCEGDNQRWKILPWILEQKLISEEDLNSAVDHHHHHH	-0.444

query: What does the data say about its glycan array binding signal (z-score)? Entry: MGL2 (Mus musculus), Q8JZN1 (protein) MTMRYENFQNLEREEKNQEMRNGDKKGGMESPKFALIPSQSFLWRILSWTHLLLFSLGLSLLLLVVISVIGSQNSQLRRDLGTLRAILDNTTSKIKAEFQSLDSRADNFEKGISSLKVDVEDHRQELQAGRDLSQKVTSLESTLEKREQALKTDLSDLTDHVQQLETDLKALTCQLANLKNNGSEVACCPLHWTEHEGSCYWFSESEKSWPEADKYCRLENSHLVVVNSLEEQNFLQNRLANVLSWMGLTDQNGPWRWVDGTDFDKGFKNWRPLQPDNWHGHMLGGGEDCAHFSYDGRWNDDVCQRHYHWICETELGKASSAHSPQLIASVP
result: -0.188

query: Try SJA (Sophora japonica) (protein) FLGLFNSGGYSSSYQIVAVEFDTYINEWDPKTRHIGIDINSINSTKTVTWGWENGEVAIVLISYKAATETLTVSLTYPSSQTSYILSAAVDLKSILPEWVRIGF next.
result: -0.155

query: Try UEA-I (Ulex europaeus), P22972 (protein) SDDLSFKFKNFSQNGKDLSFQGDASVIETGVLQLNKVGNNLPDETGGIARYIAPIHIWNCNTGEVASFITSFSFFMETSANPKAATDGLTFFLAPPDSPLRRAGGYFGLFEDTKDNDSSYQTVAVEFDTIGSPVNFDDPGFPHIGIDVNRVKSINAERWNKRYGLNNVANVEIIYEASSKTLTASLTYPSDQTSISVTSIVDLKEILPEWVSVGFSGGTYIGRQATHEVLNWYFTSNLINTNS next.
result: -0.101

query: Try DBA (Dolichos biflorus) (protein) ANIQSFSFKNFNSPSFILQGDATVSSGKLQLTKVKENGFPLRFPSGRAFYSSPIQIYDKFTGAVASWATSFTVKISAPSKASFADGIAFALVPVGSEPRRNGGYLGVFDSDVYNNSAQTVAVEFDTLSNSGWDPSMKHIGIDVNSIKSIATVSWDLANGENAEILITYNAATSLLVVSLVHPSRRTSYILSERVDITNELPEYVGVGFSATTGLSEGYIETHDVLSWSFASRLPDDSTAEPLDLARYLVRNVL next.
result: -0.152

query: Try Arath Fbox LD (Arabidopsis thaliana) (protein) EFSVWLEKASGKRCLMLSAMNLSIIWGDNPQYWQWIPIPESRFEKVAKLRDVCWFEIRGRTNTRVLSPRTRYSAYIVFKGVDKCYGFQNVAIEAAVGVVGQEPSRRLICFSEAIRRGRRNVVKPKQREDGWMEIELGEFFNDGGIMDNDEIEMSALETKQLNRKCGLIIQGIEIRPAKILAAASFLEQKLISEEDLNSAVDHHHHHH next.
result: -0.52

query: Try Mermaid2 (Stilbonema majum) (protein) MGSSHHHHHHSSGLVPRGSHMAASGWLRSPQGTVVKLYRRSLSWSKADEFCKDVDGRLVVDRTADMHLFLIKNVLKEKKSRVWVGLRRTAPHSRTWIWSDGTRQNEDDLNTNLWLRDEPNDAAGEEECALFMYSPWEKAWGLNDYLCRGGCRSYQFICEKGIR next.
result: 0.333

query: Try Dectin2 (Homo sapiens), Q6EIG7 (protein) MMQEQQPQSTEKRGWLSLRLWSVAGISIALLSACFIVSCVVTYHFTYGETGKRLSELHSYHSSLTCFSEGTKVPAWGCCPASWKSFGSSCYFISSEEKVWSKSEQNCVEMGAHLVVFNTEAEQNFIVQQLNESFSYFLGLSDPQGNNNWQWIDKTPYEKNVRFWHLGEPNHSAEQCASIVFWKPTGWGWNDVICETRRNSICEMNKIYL next.
result: -0.182
